measurementTarget: FKBP51 (Homo sapiens)
test: Fluorescence polarization binding assay, FK1-domain of FKBP51WT with tracer F4
Parameters: Purified FK1-domains of FKBP51WT (4.5 nM) with F4 (3 nM), FKBP52WT (400 nM) with F2 (20 nM); made in house; host or cells: E. coli BL21(DE3)pLysS
assayContext: FK1-domain of FKBP51WT (4.5 nM) with F4 (3 nM); A series; read-out: Affinity(Ki) for FKBP51
Experimental: The target protein was also diluted in this assay buffer at double the highest concentration required for the final sample. This protein stock was used for a 1:1 serial dilution. The inventive compound was dissolved in DMSO to reach a 100-times concentrated stock solution. This was used for a 1:1 serial dilution in DMSO. […] The competition curves were analyzed by using SigmaPlot9. […] Inhibition constants were measured in a fluorescence polarization binding assay by titrating the compounds.
quantityKind: Ki

INSERT INTO assay_data (compound, readoutvalue) VALUES
  ('C=CC[C@H](C(=O)N1CCCC[C@H]1C(=O)N[C@H](CCc1ccc(OC)c(OC)c1)c1cccc(OCCN2CCOCC2)c1)c1cc(OC)c(OC)c(OC)c1', '1 to 10 µM'),
  ('COc1ccc(CCC(OC(=O)[C@@H]2CCCCN2C(=O)C(NC(=O)C2N=CN=N2)C2CCCCC2)c2cccc(OCC(=O)O)c2)cc1OC (stereo partly drawn)', '10 to 50 µM'),
  ('C=CC[C@H](C(=O)N1CCCC[C@H]1C(=O)OC(CCCc1cccnc1)CCCc1cccnc1)c1cc(OC)c(OC)c(OC)c1', '10 to 50 µM'),
  ('COc1ccc(CC[C@@H](OC(=O)[C@@H]2CCCCN2C(=O)[C@H](c2cc(OC)c(OC)c(OC)c2)[C@@H]2C=CCCC2)c2cccc(OCC(=O)O)c2)cc1OC', '< 0.1 µM'),
  ('COc1ccc(CCC(OC(=O)[C@@H]2CCCCN2C(=O)C(NC(=O)c2ccccc2O)C2CCCCC2)c2cccc(OCC(=O)O)c2)cc1OC (stereo partly drawn)', '10 to 50 µM');

[in] # input compound: COc1ccc(CCC(OC(=O)[C@@H]2CCCCN2C(=O)C(NC(=O)c2ccccn2)C2CCCCC2)c2cccc(OCC(=O)O)c2)cc1OC (stereo partly drawn) ; wanted: its Ki
[out] 10 to 50 µM

---

pKi values, listed per item
measurementTarget: FKBP51 (Homo sapiens, UniProt Q13451)
Sequence (Q13451 42-130 limits assumed): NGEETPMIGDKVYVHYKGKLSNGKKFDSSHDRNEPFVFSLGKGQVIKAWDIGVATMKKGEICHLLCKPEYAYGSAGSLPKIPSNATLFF
test: Fluorescence polarization binding assay, FK1-domain of FKBP51WT with tracer F4
Design: Purified FK1-domains of FKBP51WT (4.5 nM) with F4 (3 nM), FKBP52WT (400 nM) with F2 (20 nM); made in house; host or cells: E. coli BL21(DE3)pLysS
assayContext: compounds B01-C25; read-out: Affinity(Ki) for FKBP51
pKi: −log10 of the molar value.

INSERT INTO results (compound, measurementtarget, readoutvalue) VALUES
  ('COc1cc([C@@H](C(=O)N2CCCC[C@H]2C(=O)NC(C)(C)C(N)=O)C2CCCCC2)cc(OC)c1OC [Compound B11]', 'FKBP51 (Homo sapiens, UniProt Q13451)', '5.00 to 6.00'),
  ('COc1cc([C@@H](C(=O)N2CCCC[C@H]2C(=O)OC2CC=CC2)C2CCCCC2)cc(OC)c1OC [Compound C14]', 'FKBP51 (Homo sapiens, UniProt Q13451)', '5.00 to 6.00'),
  ('CC[C@H](C)OC(=O)[C@@H]1CCCCN1C(=O)[C@H](c1cc(OC)c(OC)c(OC)c1)C1CCCCC1 [Compound C07]', 'FKBP51 (Homo sapiens, UniProt Q13451)', '4.30 to 5.00');

[in] # input compound: COCCOC(=O)[C@@H]1CCCCN1C(=O)[C@H](c1cc(OC)c(OC)c(OC)c1)C1CCCCC1 [Compound C18] ; wanted: its pKi
[out] 5.00 to 6.00
